- Test system: KRAS-mutant PDC tumor spheroid with HUVEC/MSC, viability
- Assay explanation: Anticancer human tumor 327498-153-R-J2-PDC patient-derived uterine carcinosarcoma cell line growth inhibition [KRAS2]
- Reported conditions: second compound 0.316 µM; first compound 0.1 µM; active compounds read low
Binary label based on viability, T/C with cut-off 30%: below gives True, not below gives False.

Compound: CN(C)C/C=C/C(=O)Nc1cc2c(Nc3ccc(F)c(Cl)c3)ncnc2cc1O[C@H]1CCOC1 + C=CC(=O)N1CCN(c2nc(=O)n(-c3c(C)ccnc3C(C)C)c3nc(-c4c(O)cccc4F)c(F)cc23)C(C)C1
Subject of test: KRAS-mutant PDC tumor spheroid with HUVEC/MSC, viability
Label value: False
//
Compound: Cn1nccc1Nc1nccc(-c2cc3c(s2)C(C)(C)N(CCN2CCOCC2)C3=O)n1 + COc1cc2nc(C)nc(NC(C)c3cc(N)cc(C(F)(F)F)c3)c2cc1OC1CCOC1
Subject of test: KRAS-mutant PDC tumor spheroid with HUVEC/MSC, viability
Label value: False
//
Compound: CC(=O)OC12COC1CC(O)C1(C)C(=O)C(O)C3=C(C)C(OC(=O)C(O)C(NC(=O)OC(C)(C)C)c4ccccc4)CC(O)(C(OC(=O)c4ccccc4)C21)C3(C)C (stereo unspecified) + C=CC(=O)N1CCN(c2nc(OCC3CCCN3C)nc3c2CCN(c2cccc4cccc(C)c24)C3)CC1CC#N
Subject of test: KRAS-mutant PDC tumor spheroid with HUVEC/MSC, viability
Label value: True

Item CC(C)NCC(C(=O)N1CCN(c2ncnc3c2C(C)CC3O)CC1)c1ccc(Cl)cc1 (stereo unspecified) + CC1OCC2(CCN(c3cnc(Sc4ccnc(N)c4Cl)c(N)n3)CC2)C1N : viability, T/C beneath 30%, strictly?
False

Please state whether viability, T/C is below 30% for O=C(c1cc(Cc2n[nH]c(=O)c3ccccc23)ccc1F)N1CCN(C(=O)C2CC2)CC1 + C=CC(=O)N1CCN(c2nc(OCC3CCCN3C)nc3c2CCN(c2cccc4cccc(C)c24)C3)CC1CC#N
False

----------
- Tested on: KRAS-mutant PDC tumor spheroid with HUVEC/MSC, viability
- Assay explanation: Anticancer human tumor 327498-153-R-J2-PDC cell line growth inhibition [KRAS2];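 note: spheroids exposed to agents for seven days before reading; 100% = DMSO vehicle wells so lower means fewer viable cells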
- Reported conditions: second compound 0.1 µM; first compound 0.316 µM; active compounds read low
# class 1 = viability, T/C below 20% (exclusive); class 0 = viability, T/C at/above 20%

Look over these answered cases.
Compound: COc1cc(Nc2ncc3c(n2)-c2ccc(Cl)cc2C(c2c(F)cccc2OC)=NC3)ccc1C(=O)O + C=CC(=O)N1CCN(c2nc(=O)n(-c3c(C)ccnc3C(C)C)c3nc(-c4c(O)cccc4F)c(F)cc23)C(C)C1
Label value: class 1

Compound: COC(=O)c1ccc2c(C(=Nc3ccc(N(C)C(=O)CN4CCN(C)CC4)cc3)c3ccccc3)c(O)[nH]c2c1 + COc1cc2nc(C)nc(NC(C)c3cc(N)cc(C(F)(F)F)c3)c2cc1OC1CCOC1
Label value: class 0

Compound: CC(C)NCC(C(=O)N1CCN(c2ncnc3c2C(C)CC3O)CC1)c1ccc(Cl)cc1 (stereo not given) + C=CC(=O)N1CCN(c2nc(=O)n(-c3c(C)ccnc3C(C)C)c3nc(-c4c(O)cccc4F)c(F)cc23)C(C)C1
Label value: class 0

Compound: CC(C)NCC(C(=O)N1CCN(c2ncnc3c2C(C)CC3O)CC1)c1ccc(Cl)cc1 (stereo not given) + COc1cc2nc(C)nc(NC(C)c3cc(N)cc(C(F)(F)F)c3)c2cc1OC1CCOC1
Label value: class 0

Compound: COC(=O)c1ccc2c(C(=Nc3ccc(N(C)C(=O)CN4CCN(C)CC4)cc3)c3ccccc3)c(O)[nH]c2c1 + C=CC(=O)N1CCN(c2nc(=O)n(-c3c(C)ccnc3C(C)C)c3nc(-c4c(O)cccc4F)c(F)cc23)C(C)C1
Label value: class 0

Compound: O=C(c1cc(Cc2n[nH]c(=O)c3ccccc23)ccc1F)N1CCN(C(=O)C2CC2)CC1 + COc1cc2nc(C)nc(NC(C)c3cc(N)cc(C(F)(F)F)c3)c2cc1OC1CCOC1
Label value: class 0

State whether 20% exceeds viability, T/C recorded for CC1(C)CCC(CN2CCN(c3ccc(C(=O)NS(=O)(=O)c4ccc(NCC5CCOCC5)c([N+](=O)[O-])c4)c(Oc4cnc5[nH]ccc5c4)c3)CC2)=C(c2ccc(Cl)cc2)C1 + CC1OCC2(CCN(c3cnc(Sc4ccnc(N)c4Cl)c(N)n3)CC2)C1N .
class 0

Does CC1COCCN1c1cc(-c2ccnn2C)c2ccnc(-c3ccn[nH]3)c2n1 (stereo not given) + CC1OCC2(CCN(c3cnc(Sc4ccnc(N)c4Cl)c(N)n3)CC2)C1N have viability, T/C strictly under 20%?
class 1

Take the compound O=C(c1cc(Cc2n[nH]c(=O)c3ccccc23)ccc1F)N1CCN(C(=O)C2CC2)CC1 + CC1OCC2(CCN(c3cnc(Sc4ccnc(N)c4Cl)c(N)n3)CC2)C1N and say whether its viability, T/C is less than 20%.
class 0

Decide: viability, T/C of O=C(c1cc(Cc2n[nH]c(=O)c3ccccc23)ccc1F)N1CCN(C(=O)C2CC2)CC1 + C=CC(=O)N1CCN(c2nc(OCC3CCCN3C)nc3c2CCN(c2cccc4cccc(C)c24)C3)CC1CC#N strictly below 20%?
class 0

Determine if CC1(C)CCC(CN2CCN(c3ccc(C(=O)NS(=O)(=O)c4ccc(NCC5CCOCC5)c([N+](=O)[O-])c4)c(Oc4cnc5[nH]ccc5c4)c3)CC2)=C(c2ccc(Cl)cc2)C1 + C=CC(=O)N1CCN(c2nc(=O)n(-c3c(C)ccnc3C(C)C)c3nc(-c4c(O)cccc4F)c(F)cc23)C(C)C1 shows viability, T/C strictly lower than 20%.
class 0

For COc1cc2nccc(Oc3ccc(NC(=O)C4(C(=O)Nc5ccc(F)cc5)CC4)cc3)c2cc1OC + C=CC(=O)N1CCN(c2nc(OCC3CCCN3C)nc3c2CCN(c2cccc4cccc(C)c24)C3)CC1CC#N , is the recorded viability, T/C below the cut-off of 20%?
class 0

Given the entry COc1cc(Nc2ncc3c(n2)-c2ccc(Cl)cc2C(c2c(F)cccc2OC)=NC3)ccc1C(=O)O + CC1OCC2(CCN(c3cnc(Sc4ccnc(N)c4Cl)c(N)n3)CC2)C1N , would its reported viability, T/C be below 20%?
class 1

Please let me know if CCNC(=O)CC1N=C(c2ccc(Cl)cc2)c2cc(OC)ccc2-n2c(C)nnc21 (stereo not given) + COc1cc2nc(C)nc(NC(C)c3cc(N)cc(C(F)(F)F)c3)c2cc1OC1CCOC1 shows viability, T/C below 20%.
class 0
